Biological target: RET (M918T) (Homo sapiens, UniProt P07949, M918T)
Sequence (P07949 29-1114 M918T): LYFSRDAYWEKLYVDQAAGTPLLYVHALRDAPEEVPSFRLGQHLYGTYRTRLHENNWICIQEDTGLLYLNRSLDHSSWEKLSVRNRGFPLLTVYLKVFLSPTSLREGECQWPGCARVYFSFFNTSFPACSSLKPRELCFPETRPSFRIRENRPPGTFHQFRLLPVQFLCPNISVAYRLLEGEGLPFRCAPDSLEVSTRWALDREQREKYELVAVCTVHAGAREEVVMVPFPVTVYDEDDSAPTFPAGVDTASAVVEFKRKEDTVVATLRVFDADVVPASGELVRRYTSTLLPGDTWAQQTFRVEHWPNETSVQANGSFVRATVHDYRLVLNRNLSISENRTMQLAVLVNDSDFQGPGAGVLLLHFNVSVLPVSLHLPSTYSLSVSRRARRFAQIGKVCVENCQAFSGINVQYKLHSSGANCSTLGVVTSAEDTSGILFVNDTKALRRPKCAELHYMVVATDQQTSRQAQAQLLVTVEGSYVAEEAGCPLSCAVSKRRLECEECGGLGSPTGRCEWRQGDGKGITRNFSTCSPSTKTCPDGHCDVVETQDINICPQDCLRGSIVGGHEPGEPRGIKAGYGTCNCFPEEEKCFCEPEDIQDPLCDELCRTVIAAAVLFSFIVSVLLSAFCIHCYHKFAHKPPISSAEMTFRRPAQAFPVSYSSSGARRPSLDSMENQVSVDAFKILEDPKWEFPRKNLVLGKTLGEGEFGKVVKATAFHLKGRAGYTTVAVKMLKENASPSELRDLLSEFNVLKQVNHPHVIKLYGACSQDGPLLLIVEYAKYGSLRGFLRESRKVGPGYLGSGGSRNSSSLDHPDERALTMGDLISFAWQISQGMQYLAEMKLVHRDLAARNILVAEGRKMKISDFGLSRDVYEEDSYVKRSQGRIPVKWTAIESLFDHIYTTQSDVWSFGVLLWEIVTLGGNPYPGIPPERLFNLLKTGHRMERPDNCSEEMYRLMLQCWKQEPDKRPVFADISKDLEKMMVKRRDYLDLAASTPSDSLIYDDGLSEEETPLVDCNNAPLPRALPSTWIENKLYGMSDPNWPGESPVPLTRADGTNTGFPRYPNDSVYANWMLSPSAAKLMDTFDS
Experiment: Kd determination
recordedMetric: Kd (nM)
One number for each entry, in nM.

Consider the compound c1cncc(-c2cccc(Nc3nccc(NC4CCCCC4)n3)c2)c1 [Compound 1] and give its measured Kd. 1200

----------
Molecular target: LCK (Homo sapiens)
Sequence (P06239 whole entry): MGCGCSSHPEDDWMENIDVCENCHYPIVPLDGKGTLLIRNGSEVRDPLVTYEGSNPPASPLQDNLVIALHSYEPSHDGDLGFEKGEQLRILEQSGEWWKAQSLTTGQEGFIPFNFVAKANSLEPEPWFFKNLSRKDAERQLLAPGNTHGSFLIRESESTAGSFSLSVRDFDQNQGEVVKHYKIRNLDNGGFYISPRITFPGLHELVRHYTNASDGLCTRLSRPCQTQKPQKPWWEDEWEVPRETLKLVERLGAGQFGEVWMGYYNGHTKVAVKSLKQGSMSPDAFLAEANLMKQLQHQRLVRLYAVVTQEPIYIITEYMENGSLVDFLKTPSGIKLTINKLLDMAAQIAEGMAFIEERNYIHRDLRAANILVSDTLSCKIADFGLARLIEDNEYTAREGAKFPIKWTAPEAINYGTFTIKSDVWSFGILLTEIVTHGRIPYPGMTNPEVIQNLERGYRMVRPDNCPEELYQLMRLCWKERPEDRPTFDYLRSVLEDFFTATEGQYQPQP
recordedMetric: pKd
Numbers only, as −log10 of the molar value.

Consider the compound `c1cncc(-c2cccc(Nc3nccc(NC4CCCCC4)n3)c2)c1` and give its measured pKd. 5.54

----------
Experiment: In vivo pharmacokinetic study
Parameters: species or system mouse
Details: female, C57BL/6, mouse, plasma, ip, 5 mg/kg
recordedMetric: AUC (µM·h)
Answers are plain numbers, in µM·h.

Consider the compound `CC(C)Nc1ccnc(Nc2cccc(-c3cccnc3)c2)n1` and give its measured AUC. 0.683

----------
Experiment: In vivo pharmacokinetic study
Parameters: species or system mouse
Details: female, C57BL/6, mouse, plasma, ip, 5 mg/kg
recordedMetric: Tmax (min)
One number for each entry, in min.

Consider the compound CC(C)Nc1ccnc(Nc2cccc(-c3cccnc3)c2)n1 [Compound 5e] and give its measured Tmax. 4.98

----------
Target: FLT3 (ITD) (Homo sapiens, UniProt P36888, ITD)
Sequence (P36888 564-993, change not shown): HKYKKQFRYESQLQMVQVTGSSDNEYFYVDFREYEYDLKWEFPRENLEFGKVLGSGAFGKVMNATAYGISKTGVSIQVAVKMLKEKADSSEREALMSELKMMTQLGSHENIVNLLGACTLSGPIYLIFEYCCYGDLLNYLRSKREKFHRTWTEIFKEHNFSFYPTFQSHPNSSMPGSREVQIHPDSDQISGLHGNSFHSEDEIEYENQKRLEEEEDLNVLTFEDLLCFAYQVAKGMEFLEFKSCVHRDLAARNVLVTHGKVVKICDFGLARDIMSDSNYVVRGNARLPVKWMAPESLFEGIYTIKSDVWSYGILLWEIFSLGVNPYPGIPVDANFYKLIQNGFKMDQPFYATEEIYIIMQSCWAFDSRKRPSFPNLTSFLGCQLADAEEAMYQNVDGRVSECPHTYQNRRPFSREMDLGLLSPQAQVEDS
Assay: Kd determination
recordedMetric: Kd (nM)
One number for each entry, in nM.

Consider the molecule `c1cncc(-c2cccc(Nc3nccc(NC4CCCCC4)n3)c2)c1` and give its measured Kd. 31

We now examine a further molecule.
Consider the molecule `CC(C)Nc1ccnc(Nc2cccc(-c3cccnc3)c2)n1` and give its measured Kd. 1.4

----------
Target: EPHB6 (Homo sapiens)
Sequence (O15197 32-1021): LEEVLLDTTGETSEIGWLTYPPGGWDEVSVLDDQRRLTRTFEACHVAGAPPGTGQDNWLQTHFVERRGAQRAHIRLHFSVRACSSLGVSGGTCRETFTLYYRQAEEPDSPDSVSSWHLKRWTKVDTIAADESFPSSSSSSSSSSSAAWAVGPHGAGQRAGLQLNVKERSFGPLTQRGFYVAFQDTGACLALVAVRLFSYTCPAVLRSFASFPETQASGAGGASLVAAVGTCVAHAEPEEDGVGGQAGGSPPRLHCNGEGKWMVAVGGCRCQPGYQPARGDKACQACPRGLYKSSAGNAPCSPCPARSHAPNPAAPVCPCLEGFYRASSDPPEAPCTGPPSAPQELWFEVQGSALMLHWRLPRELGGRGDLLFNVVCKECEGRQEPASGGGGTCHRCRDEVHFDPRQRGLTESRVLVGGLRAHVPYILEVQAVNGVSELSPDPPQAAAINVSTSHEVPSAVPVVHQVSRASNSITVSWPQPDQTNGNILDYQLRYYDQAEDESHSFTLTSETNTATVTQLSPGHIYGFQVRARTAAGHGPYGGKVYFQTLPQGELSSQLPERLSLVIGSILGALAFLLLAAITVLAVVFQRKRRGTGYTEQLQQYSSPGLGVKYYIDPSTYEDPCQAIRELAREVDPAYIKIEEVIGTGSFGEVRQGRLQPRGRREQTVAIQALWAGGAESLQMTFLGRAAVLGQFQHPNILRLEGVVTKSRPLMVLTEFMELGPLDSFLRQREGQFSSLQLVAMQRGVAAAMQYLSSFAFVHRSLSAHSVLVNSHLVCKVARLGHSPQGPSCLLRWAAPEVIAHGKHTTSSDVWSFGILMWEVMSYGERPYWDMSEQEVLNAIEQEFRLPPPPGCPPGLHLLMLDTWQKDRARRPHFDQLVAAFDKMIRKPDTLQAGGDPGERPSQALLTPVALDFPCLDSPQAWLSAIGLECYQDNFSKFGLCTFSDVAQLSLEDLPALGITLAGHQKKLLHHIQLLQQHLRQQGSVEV
recordedMetric: pKd
Give bare numbers, as −log10 of the molar value.

Consider the compound `CC(C)Nc1ccnc(Nc2cccc(-c3cccnc3)c2)n1` and give its measured pKd. 6.36
